Origin of measurements: patent US20250152746A1

Would you mind telling me the reported Cyno Primary Hepatocyte Editing % 500 of each entry?
System: PCSK9 gene
Test: PCSK9 gRNA/SpCas9 editing in primary cynomolgus hepatocytes (Tables 2, 22)
Type: cell-based, cynomolgus monkey
Conditions: 500 ng/RNA/mL; SpCas9 mRNA MS002 1:1 by weight
m = 2'-O-methyl; r = 2'-OH (RNA)
Response body: numeric value in %, unit text excluded.

Q: Which Cyno Primary Hepatocyte Editing % 500 reading was recorded for the molecule GA214: PCSK9 gRNA; protospacer CCTTGGCCACGCCGGCATCC (SEQ ID NO: 208) (nucleic acid, sugars from the 5' end m3 r94 m3, linkages s3 o93 s3 (s phosphorothioate, o phosphodiester), T or U not given here) guide: CCUUGGCCACGCCGGCAUCCGUUUUAGAGCUAGAAAUAGCAAGUUAAAAUAAGGCUAGUCCGUUAUCAACUUGAAAAAGUGGCACCGAGUCGGUGCUUUU ?
A: 14.84

Q: Which Cyno Primary Hepatocyte Editing % 500 reading was recorded for the molecule GA176: PCSK9 gRNA; protospacer AGCACCACCACGTAGGTGCC (SEQ ID NO: 170) (nucleic acid, sugars from the 5' end m3 r94 m3, linkages s3 o93 s3 (s phosphorothioate, o phosphodiester), T or U not given here) guide: AGCACCACCACGUAGGUGCCGUUUUAGAGCUAGAAAUAGCAAGUUAAAAUAAGGCUAGUCCGUUAUCAACUUGAAAAAGUGGCACCGAGUCGGUGCUUUU ?
A: 8.11
